# Assay Notes: Inhibition of Escherichia coli MurD ligase assessed as residual activity by colorimetry
Reported Property: IC50 (µM)
Answer format: numeric, µM implied, no suffix.

Observe how each entry below is paired with its result.
O=C(O)CC[C@@H](NC(=O)c1cccc(CNc2ccc(/C=C3\SC(=S)NC3=O)cc2)c1)C(=O)O; 45
O=C(O)CC[C@@H](NC(=O)c1ccc(CNc2cccc(/C=C3\SC(=S)NC3=O)c2)cc1)C(=O)O; 174

Next:
Ask: Look at this compound and give its reported IC50. O=C(O)CC[C@H](NC(=O)c1ccc(CNc2cccc(/C=C3\SC(=S)NC3=O)c2)cc1)C(=O)O
Result: 206
